Where do the numbers come from? From patent US8211927B2.

# MEASUREMENT TARGET: human VR1 (Homo sapiens)
# Construct: expressed in transfected cells
# Sequence (Q8NER1 whole entry): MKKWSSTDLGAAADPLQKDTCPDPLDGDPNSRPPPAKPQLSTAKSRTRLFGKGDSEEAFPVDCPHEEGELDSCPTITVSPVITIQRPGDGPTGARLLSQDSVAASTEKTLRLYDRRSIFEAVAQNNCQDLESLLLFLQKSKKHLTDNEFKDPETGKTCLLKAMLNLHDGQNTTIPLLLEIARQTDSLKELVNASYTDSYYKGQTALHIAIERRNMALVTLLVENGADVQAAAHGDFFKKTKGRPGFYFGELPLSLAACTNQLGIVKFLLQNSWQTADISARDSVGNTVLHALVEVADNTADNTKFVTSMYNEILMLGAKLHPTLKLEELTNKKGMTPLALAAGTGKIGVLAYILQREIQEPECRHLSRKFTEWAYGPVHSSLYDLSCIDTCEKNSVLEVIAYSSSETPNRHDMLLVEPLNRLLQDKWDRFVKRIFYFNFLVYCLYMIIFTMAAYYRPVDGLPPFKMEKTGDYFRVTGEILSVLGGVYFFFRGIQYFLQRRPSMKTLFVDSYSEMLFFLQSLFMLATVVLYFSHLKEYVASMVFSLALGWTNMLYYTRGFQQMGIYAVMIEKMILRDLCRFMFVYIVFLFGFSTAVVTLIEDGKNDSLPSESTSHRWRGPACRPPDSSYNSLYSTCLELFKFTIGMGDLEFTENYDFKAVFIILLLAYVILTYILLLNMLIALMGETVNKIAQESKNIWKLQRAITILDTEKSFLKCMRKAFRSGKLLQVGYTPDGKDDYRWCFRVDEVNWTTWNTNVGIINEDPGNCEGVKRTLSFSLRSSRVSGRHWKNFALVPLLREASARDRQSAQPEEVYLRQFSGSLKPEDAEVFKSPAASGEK
# ASSAY COMMENT: FLIPR Calcium 3 calcium flux assay (headed Vanilloid Receptor Binding Assay), antagonist activity against capsaicin
# Assay type: cell-based
# ASSAY CONDITIONS: Chinese hamster ovary cells expressing human VR1; antagonist activity vs 30 nM capsaicin; read-out: TRPV1 pEC50 (converted)
Consider the following compounds; for each one, report its EC50.
Answers are plain numbers, in nM.

>>> reported_value("O=C(NC1CCCC1)c1noc(-c2ccc(C(F)(F)F)cc2)c1F")
31.6
>>> reported_value("O=C(Nc1cccc(CO)c1)c1noc(-c2ccc(C(F)(F)F)c(F)c2)c1Cl")
31.6
>>> reported_value("Cc1c(C(=O)N[C@@H](C)C(C)C)noc1-c1ccc(C(F)(F)F)c(F)c1")
100
>>> reported_value("O=C(NC1CCCC1)c1noc(-c2ccc(C(F)(F)F)cc2)c1Cl")
3.98
>>> reported_value("O=C(NC1CCCC1)c1noc(-c2ccc(C(F)(F)F)cc2)c1Br")
10

Okay, here is my list. What is EC50 for each of these?
1. CCCc1c(C(=O)CC2CCCC2)noc1-c1ccc(C(F)(F)F)cc1
2. Cc1c(C(=O)NC2CCCC2)noc1-c1ccc(C(F)(F)F)cc1
3. O=C(NC1CCCC1)c1noc(-c2ccc(F)cc2)c1Cl
4. O=C(NC1CCCC1)c1cc(-c2ccc(C(F)(F)F)cc2)on1
5. O=C(NC1CCOCC1)c1noc(-c2ccc(C(F)(F)F)cc2)c1Cl
6. CC[C@H](CO)NC(=O)c1noc(-c2ccc(C(F)(F)F)c(F)c2)c1C

result:
100
39.8
100
501
31.6
63.1

Okay, here is my list. What is EC50 for each of these?
1. O=C(NC1CCCCC1)c1noc(-c2ccc(Cl)cc2)c1Cl
2. O=C(NC1CCCC1)c1noc(-c2ccc(Cl)cc2)c1Cl
3. CCCC(C)NC(=O)c1noc(-c2ccc(Cl)cc2)c1Cl (stereo not drawn)
4. Cc1c(C(=O)NC2CCOCC2)noc1-c1ccc(C(F)(F)F)c(F)c1

result:
1: 63.1; 2: 15.8; 3: 158; 4: 12.6
